Overview of recorded inhibition % for various compounds
- Test system: β-Glucosidase
- test: glycosidase inhibition assay, almond β-glucosidase
- Type: biochemical
- protocol_conditions: at 100 μM

# compound, result_units, inhibition %
measured = [
    ("OCCC[C@H](O)CCCCCCCCC[C@@H]1N[C@@H](CO)[C@H](O)[C@H]1O", "%", 9.6),
    ("OCCC[C@@H](O)CCCCCCCCC[C@H]1N[C@H](CO)[C@@H](O)[C@@H]1O", "%", 10.0),
    ("OCCC[C@@H](O)CCCCCCCCC[C@@H]1N[C@@H](CO)[C@@H](O)[C@H]1O [ent-3,10-di-epi-3]", "%", 7.3),
    ("OCCCC(O)CCCCCCCCCC1NC(CO)C(O)C1O (stereo not drawn) [2,10-di-epi-3]", "%", 10.9),
    ("OCCC[C@H](O)CCCCCCCCC[C@H]1N[C@H](CO)[C@@H](O)[C@@H]1O [10’-epi-3]", "%", 29.1),
    ("OCCC[C@H](O)CCCCCCCCC[C@@H]1N[C@@H](CO)[C@@H](O)[C@H]1O [ent-3-epi-3]", "%", 4.6),
    ("OCCC[C@@H](O)CCCCCCCCC[C@@H]1N[C@@H](CO)[C@H](O)[C@H]1O [ent-10’-epi-3]", "%", 8.0),
    ("OCCC[C@@H](O)CCCCCCCCC[C@H]1N[C@@H](CO)[C@@H](O)[C@@H]1O [2-epi-3]", "%", 8.6),
]

====

Overview of recorded inhibition at 100 µM for various compounds
- assay_system: α-Mannosidase (Canavalia ensiformis)
- Construct: purchased Sigma-Aldrich Chemical Co
- Sequence (C0HJB3 whole entry): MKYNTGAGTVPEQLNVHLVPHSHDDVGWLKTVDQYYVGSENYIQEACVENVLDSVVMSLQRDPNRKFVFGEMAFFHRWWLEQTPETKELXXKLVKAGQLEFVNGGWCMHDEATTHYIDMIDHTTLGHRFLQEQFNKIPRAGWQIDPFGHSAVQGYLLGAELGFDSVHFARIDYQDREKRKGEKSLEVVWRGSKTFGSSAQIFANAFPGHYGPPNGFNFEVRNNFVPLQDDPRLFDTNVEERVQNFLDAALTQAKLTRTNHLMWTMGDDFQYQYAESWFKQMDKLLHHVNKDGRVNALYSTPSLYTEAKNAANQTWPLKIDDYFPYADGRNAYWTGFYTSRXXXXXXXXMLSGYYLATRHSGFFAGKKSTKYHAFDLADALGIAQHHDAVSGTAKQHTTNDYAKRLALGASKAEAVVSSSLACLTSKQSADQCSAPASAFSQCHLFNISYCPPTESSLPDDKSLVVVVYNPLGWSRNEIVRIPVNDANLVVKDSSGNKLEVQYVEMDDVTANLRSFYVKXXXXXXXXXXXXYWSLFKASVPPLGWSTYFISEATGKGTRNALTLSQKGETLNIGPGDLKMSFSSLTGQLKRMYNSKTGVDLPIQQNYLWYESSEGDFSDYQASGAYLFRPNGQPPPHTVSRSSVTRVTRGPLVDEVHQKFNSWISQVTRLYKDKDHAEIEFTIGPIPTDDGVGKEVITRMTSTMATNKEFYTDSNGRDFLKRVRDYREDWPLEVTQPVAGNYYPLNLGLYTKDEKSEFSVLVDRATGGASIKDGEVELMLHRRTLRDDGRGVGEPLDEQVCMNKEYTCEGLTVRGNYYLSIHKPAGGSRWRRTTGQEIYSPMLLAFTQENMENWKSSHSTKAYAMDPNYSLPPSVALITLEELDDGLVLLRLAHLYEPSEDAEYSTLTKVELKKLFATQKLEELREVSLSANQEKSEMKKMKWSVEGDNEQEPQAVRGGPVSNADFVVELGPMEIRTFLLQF
- test: glycosidase inhibition assay, jack bean α-mannosidase
- Assay type: biochemical
- protocol_conditions: at 100 μM
- Description: With rat intestinal maltase as an exception, other enzymes were purchased from Sigma-Aldrich Chemical Co. (St. Louis, Mo. USA). […] The released D-glucose was determined colorimetrically using the Glucose CII-test Wako (Wako Pure Chemical Ind.; Osaka, Japan). Other glycosidase activities were determined using an appropriate p-nitrophenyl glycoside as substrate in a buffer solution at the optimal pH value of each enzyme. […] The released p-nitrophenol was measured spectrometrically at 400 nm.

# compound, inhibition at 100 µM, %
rows = [
    ("OCCC[C@@H](O)CCCCCCCCC[C@@H]1N[C@@H](CO)[C@H](O)[C@H]1O [ent-10’-epi-3]", 1.8),
    ("OCCC[C@H](O)CCCCCCCCC[C@H]1N[C@H](CO)[C@@H](O)[C@@H]1O [10’-epi-3]", 0),
    ("OCCC[C@@H](O)CCCCCCCCC[C@@H]1N[C@@H](CO)[C@@H](O)[C@H]1O [ent-3,10-di-epi-3]", 0),
    ("OCCC[C@@H](O)CCCCCCCCC[C@H]1N[C@@H](CO)[C@@H](O)[C@@H]1O [2-epi-3]", 0),
    ("OCCC[C@H](O)CCCCCCCCC[C@@H]1N[C@@H](CO)[C@@H](O)[C@H]1O [ent-3-epi-3]", 1.3),
    ("OCCC[C@H](O)CCCCCCCCC[C@@H]1N[C@@H](CO)[C@H](O)[C@H]1O", 2.2),
    ("OCCCC(O)CCCCCCCCCC1NC(CO)C(O)C1O (stereo not drawn) [2,10-di-epi-3]", 0.32),
    ("OCCC[C@@H](O)CCCCCCCCC[C@H]1N[C@H](CO)[C@@H](O)[C@@H]1O", 2.5),
]

Each recorded value in this set is attributed to paper PMC6832352.
